koff reference
Target: T1, Cynomolgus CD3εδ Fc heterodimer (Cy CD3ε Fc / CD3δ Fc-HIS) (cynomolgus, UniProt Q95LI8 22-100)
T1 chain 1: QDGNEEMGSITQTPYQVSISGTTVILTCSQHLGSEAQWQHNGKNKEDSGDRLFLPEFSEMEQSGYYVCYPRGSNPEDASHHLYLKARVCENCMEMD
T1 chain 2: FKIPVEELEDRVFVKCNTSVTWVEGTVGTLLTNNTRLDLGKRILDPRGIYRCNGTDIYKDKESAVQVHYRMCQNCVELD
Test: BLI (Octet), IgG on AHC sensor, pH 6.0
Give the quantity in s⁻¹, number only.

- SAD10319_P01_F01 (ADI-57299) (antibody, V domains shown, IgG; also called Ab233) VH: QVQLVQSGAEVKKPGASVKVSCKASGYTFQSYDMHWVRQAPGQRLQWMGWINPTTGNTVYSQKFQGRVTITRDTSASTAYMELSSLRSEDTAVYYCARDAYGRYFYDVWGQGTLVTVSS VL: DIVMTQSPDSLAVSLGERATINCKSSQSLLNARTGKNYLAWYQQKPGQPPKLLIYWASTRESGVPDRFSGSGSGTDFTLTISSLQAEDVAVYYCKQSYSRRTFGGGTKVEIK: 0.0179

# input for lookup
Task: koff for SAD10319_P01_C03 (ADI-48626) (antibody, V domains shown, IgG; also called Ab244) VH: QVQLVQSGAEVKKPGASVKVSCKASGYTFTDYDMHWVRQAPGQRLEWMGWIDPYTGATKYSQKFQGRVTITRDTSASTAYMELSSLRSEDTAVYYCARDAYGHYFYDVWGQGTLVTVSS VL: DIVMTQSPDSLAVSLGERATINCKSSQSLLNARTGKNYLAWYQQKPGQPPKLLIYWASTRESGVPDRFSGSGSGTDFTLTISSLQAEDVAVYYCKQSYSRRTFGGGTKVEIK ?
Output: 0.0196
